Assignment: determine reported koff for the given binders.
# MEASURED_TARGET: cynomolgus monkey DLL4 extracellular domain (cynomolgus monkey)
# PROTOCOL_SUMMARY: Biacore SPR
Numbers only, in s⁻¹.

# count of solved cases: 3
h1A11.A12 (antibody, V domains shown) VH: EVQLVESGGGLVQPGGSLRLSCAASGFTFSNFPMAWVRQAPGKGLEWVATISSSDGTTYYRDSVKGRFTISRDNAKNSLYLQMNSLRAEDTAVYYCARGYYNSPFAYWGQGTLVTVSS VL: DIQMTQSPSSLSASVGDRVTITCRASQDIYYNLAWYQQKPGKSPKLLIFDTSSLADGVPSRFSGSGSGTDFTLTISSLQPEDFATYFCQQYDWYPPTFGQGTKLEIK :: 0.00162
h1A11.A8 (antibody, V domains shown) VH: EVQLVESGGGLVQPGGSLRLSCAASGFTFGNFPMSWVRQAPGKGLEWVASISSSDSWATIGDSVKGRFTISRDNAKNSLYLQMNSLRAEDTAVYYCSRGYYNSPFAYWGQGTLVTVSS VL: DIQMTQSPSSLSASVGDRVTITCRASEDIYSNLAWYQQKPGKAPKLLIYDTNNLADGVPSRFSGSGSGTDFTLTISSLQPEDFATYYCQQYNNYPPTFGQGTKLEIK :: 2.4e-05
h1A11.1 (antibody, V domains shown) VH: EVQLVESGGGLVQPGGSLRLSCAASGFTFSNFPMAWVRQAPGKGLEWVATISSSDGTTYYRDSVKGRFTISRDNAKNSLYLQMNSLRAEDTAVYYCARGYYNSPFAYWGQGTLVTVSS VL: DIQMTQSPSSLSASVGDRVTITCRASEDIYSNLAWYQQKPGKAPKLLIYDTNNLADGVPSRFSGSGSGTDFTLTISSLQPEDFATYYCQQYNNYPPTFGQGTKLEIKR :: 0.00255

For every item in the list below, what is its measured koff?
1. 14A11 rat monoclonal antibody (antibody, V domains shown) VH: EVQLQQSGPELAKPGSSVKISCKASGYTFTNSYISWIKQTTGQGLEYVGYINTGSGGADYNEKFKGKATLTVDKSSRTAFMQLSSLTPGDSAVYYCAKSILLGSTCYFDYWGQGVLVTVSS VL: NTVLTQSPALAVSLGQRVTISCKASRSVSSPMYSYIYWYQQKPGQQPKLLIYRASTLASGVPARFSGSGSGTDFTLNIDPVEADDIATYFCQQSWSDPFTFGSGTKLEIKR
2. 1A11 rat monoclonal antibody (antibody, V domains shown) VH: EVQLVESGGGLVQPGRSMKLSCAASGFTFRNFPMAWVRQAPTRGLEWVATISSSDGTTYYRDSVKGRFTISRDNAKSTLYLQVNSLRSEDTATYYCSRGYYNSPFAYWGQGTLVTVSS VL: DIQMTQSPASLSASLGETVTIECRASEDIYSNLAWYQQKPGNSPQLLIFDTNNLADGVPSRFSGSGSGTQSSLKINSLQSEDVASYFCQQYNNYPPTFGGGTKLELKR

Result block:
1: 0.0012; 2: 0.00093
